System: M14 melanoma
Experiment: NCI tumour cell line growth inhibition, 48 h
Catalogue of TGI values
measured.attribute: TGI

INSERT INTO assay_data (compound, measured_attribute, measured_result) VALUES
  ('Cc1ccc(C(=O)NCCCOc2ccc(N3C(N)=NC(N)=NC3(C)C)cc2Cl)cc1S(=O)(=O)F', 'TGI', '> 100 µM'),
  ('C=C1[C@H]2O[C@H]2[C@@H](OC(C)=O)[C@@]2(C)[C@@H](OC(C)=O)C[C@@H](OC(=O)CCC)[C@@](C)(O)[C@@H]2[C@@H](OC(C)=O)[C@]2(O)[C@@H](C)C(=O)O[C@H]2[C@H]1Cl', 'TGI', '> 100 µM'),
  ('CCCCCCCCCCCCCCCCCCNCc1ccc(Cl)cc1', 'TGI', '7.04 µM'),
  ('Cn1c(=O)c2sc3c4sc5c(=O)n(C)c6ccccc6c5c4sc3c2c2ccccc21', 'TGI', '> 100 µM'),
  ('O=[N+]([O-])c1cccc(-c2nc(-c3ccc(Cl)cc3Cl)cn2-c2ccccc2)c1', 'TGI', '> 14.9 µM'),
  ('O=C1Nc2cc(-c3cccc(O)c3)ccc2/C1=C/c1ccc[nH]1', 'TGI', '3.54 µM'),
  ('CCO/S(=N/S(=O)(=O)c1ccccc1)c1ccccc1[N+](=O)[O-] (centres undefined)', 'TGI', '> 100 µM'),
  ('Cc1cc(N(CCC#N)CCC#N)ccc1N=Nc1cc(Cl)ccc1Cl', 'TGI', '11.4 µM'),
  ('C/C(=N\NC(N)=S)c1ccc(C)c(C)c1', 'TGI', '> 100 µM');

* * *

Test system: RXF 393 renal
Assay: NCI tumour cell line growth inhibition, 48 h; in the data active = GI50 below about 0.43 µM; inactive = the rest
Outcome codes: 1.0 = active, 0.0 = inactive

INSERT INTO measurements (molecule, system_tested, assigned_class) VALUES
  ('CCOC(=O)Nc1nc2ccccc2[nH]1', 'RXF 393 renal', 0.0),
  ('Nc1nonc1-c1nc2ccccc2n1Cc1ccc(F)cc1', 'RXF 393 renal', 0.0),
  ('O=C1/C=C/[C@@H](O)[C@@H]2C[C@@H](O)C[C@H]2/C=C/CCC[C@H](CCc2ccc3ncccc3c2)O1', 'RXF 393 renal', 1.0),
  ('CCOC(=O)C(Cc1c[nH]c2cc(N(CCO)CCO)ccc12)(NC(C)=O)C(=O)OCC', 'RXF 393 renal', 0.0),
  ('CCCCCCCCCCCCCCCCCCNCc1ccc(Cl)cc1', 'RXF 393 renal', 0.0),
  ('C/C=C/C/C=C/[C@H](C)C[C@H](O)[C@@H]1C[C@@H]2O[C@H]2/C=C/[C@@H]2OC(C)(C)O[C@H]2/C=C/C[C@H](C)CC(=O)O1', 'RXF 393 renal', 0.0),
  ('O=C(NCCc1ccccc1)Nc1ccc2cc3ccc(NC(=O)NCCc4ccccc4)cc3nc2c1', 'RXF 393 renal', 0.0),
  ('CO[C@@H]1CCN(c2nccc(Nc3cc4c(C(C)C)ccc(N5CC(CS(C)(=O)=O)[C@H]5C)c4cn3)n2)C[C@@H]1F (stereo partly specified)', 'RXF 393 renal', 0.0),
  ('Cc1cc(C(=O)Nc2n[nH]c3ccccc23)n[nH]1', 'RXF 393 renal', 0.0),
  ('COc1ccc(/C(C)=N/NC(=O)CSc2nc3ccccc3c(=O)n2CCc2ccc(S(N)(=O)=O)cc2)cc1', 'RXF 393 renal', 0.0),
  ('CNC(=O)c1cc(Oc2cccc3nc(NC(=O)Nc4cc(C(F)(F)F)cc(C(F)(F)F)c4)ccc23)ccn1', 'RXF 393 renal', 0.0),
  ('CC(C)(C)OC(=O)NCCCCn1c2c(c3ccccc3c1=O)C(=O)c1ccccc1-2', 'RXF 393 renal', 0.0),
  ('O=C(Nc1cccc(-n2cc(-c3ccncc3)c(-c3ccc(O)c(Cl)c3)n2)c1)c1ccc2c(c1)OCCO2', 'RXF 393 renal', 0.0),
  ('CC(=O)Oc1ccc2c(c1)[C@@]1(C)CCCC(C)(C)[C@@H]1CC2', 'RXF 393 renal', 0.0),
  ('Cc1cc(-c2nnc(/C=C/c3ccc4c(c3)OCO4)o2)n[nH]1', 'RXF 393 renal', 0.0),
  ('C[C@]12CC[C@@H]3c4ccc(O)cc4CC[C@H]3[C@@H]1CC[C@@H]2NS(=O)(=O)c1ccc(Br)cc1', 'RXF 393 renal', 0.0),
  ('CC[C@@]1(OC(=O)CN(C)C)C(=O)OCc2c1cc1n(c2=O)Cc2cc3c(N)cccc3nc2-1', 'RXF 393 renal', 1.0),
  ('O=C1CC[C@H](N2Cc3c(OCc4ccc(CN5CCOCC5)cc4)cccc3C2=O)C(=O)N1', 'RXF 393 renal', 0.0),
  ('CSc1ccc2c(c1)C(=O)c1c-2n(CCCN)c(=O)c2cc([N+](=O)[O-])ccc12', 'RXF 393 renal', 0.0),
  ('Cc1c(Cl)c(=O)oc2cc(OC/C=C3\CCC(=O)O3)ccc12', 'RXF 393 renal', 0.0),
  ('CN(C)C(=O)OCc1nc2c(N3CCOCC3)nc(-c3ccccc3)nc2n1C', 'RXF 393 renal', 0.0);

The reported measurements were obtained from PubChem BioAssay (NCI).
